Answer each item with its documented MIC.
test system: E. coli; assay: Agar Dilution MIC (Table I); format: cell-based; settings: Escherichia coli, strain EC14
Numbers only, in µg/mL.

For the 5 molecules below, give their MIC values.
1. CC1=C(C(=O)O)N2C(=O)C(NC(=O)[C@@H](N)c3csc4cc(Cl)ccc34)C2SC1 (some centres unmarked) [Ex. 37A]
2. CC1=C(C(=O)O)N2C(=O)C(NC(=O)[C@H](N)c3csc4ccc(F)cc34)C2SC1 (some centres unmarked)
3. CC1=C(C(=O)O)N2C(=O)[C@@H](NC(=O)[C@H](N)c3ccccc3)[C@H]2SC1
4. CC1=C(C(=O)O)N2C(=O)C(NC(=O)[C@H](N)c3csc4cccc(Cl)c34)C2SC1 (some centres unmarked) [Ex. 36B]
5. CC1=C(C(=O)O)N2C(=O)C(NC(=O)[C@H](N)c3csc4c(F)cccc34)C2SC1 (some centres unmarked)

128
64
4
128
128

For the 3 molecules below, give their MIC values.
1. CC1=C(C(=O)O)N2C(=O)C(NC(=O)[C@H](N)c3csc4cc(Cl)ccc34)C2SC1 (some centres unmarked) [Ex. 37B]
2. CC1=C(C(=O)O)N2C(=O)C(NC(=O)[C@@H](N)c3csc4c(F)cccc34)C2SC1 (some centres unmarked)
3. CC1=C(C(=O)O)N2C(=O)C(NC(=O)[C@H](N)c3csc4cc(F)ccc34)C2SC1 (some centres unmarked)

[128, 128, 64]
